Please provide measured MIC for the entries that follow.
Tested on: P. aeruginosa MSC17707
Assay: MIC, agar plate dilution method, P. aeruginosa MSC17707
Type: cell-based, Pseudomonas aeruginosa
Details: Pseudomonas aeruginosa, MSC17707, P. aeruginosa MSC17707, AMK-resistant, read-out: minimal inhibitory concentration (MIC)
Unit µg/mL implied. Number only.

Sure, the documented MIC for CNC1C(O[C@H]2OC(C)[C@@H](N)[C@H](O)C2O)O[C@H]2CC(N)[C@@H](O[C@H]3CC(O)[C@H](N)CC3N)OC2C1O (stereo partly shown) is 8

Sure, the documented MIC for CNC1C(O[C@H]2OC(CO)[C@@H](NC(=N)N)[C@H](O)C2O)O[C@H]2CC(N)[C@@H](O[C@H]3CC(O)[C@H](N)CC3N)OC2C1O (stereo partly shown) is 8

Sure, the documented MIC for CNC1C(O[C@H]2OC(CO)[C@@H](NC(=O)CN)[C@H](O)C2O)O[C@H]2C[C@H](N)[C@@H](O[C@@H]3C(N)C[C@@H](N)C[C@H]3O)OC2C1O (stereo partly drawn) [Compound V1-o, 6-deoxy-5-epi-4″-N-glycylapramycin] is 2

Sure, the documented MIC for CNC1C(O[C@H]2OC(CO)[C@@H](NC(=N)N)[C@H](O)C2O)O[C@H]2CC(N)[C@@H](O[C@@H]3C(N)C[C@@H](N)C(O)[C@H]3F)OC2C1O (stereo partly shown) is 8

Sure, the documented MIC for CNC1C(O[C@H]2OC(CO)[C@@H](NCCN)[C@H](O)C2O)O[C@H]2CC(N)[C@@H](O[C@@H]3C(N)C[C@@H](N)C(O)[C@H]3O)OC2C1O (stereo partly shown) [Compound S1-g, 4″-N-(2-aminoethyl)-5-epiapramycin] is 4

Sure, the documented MIC for CNC1C(O[C@H]2OC(CO)[C@@H](NC(=O)[C@H](O)CN)[C@H](O)C2O)O[C@H]2C[C@H](N)[C@@H](O[C@@H]3C(N)C[C@@H](N)C(O)[C@H]3O)OC2C1O (stereo partly drawn) [Compound V1-s, 5-epi-4″-N-(D-isoseryl)apramycin] is 2

Sure, the documented MIC for CNC1C(O[C@H]2OC(CO)[C@@H](NC(=O)[C@@H](N)CO)[C@H](O)C2O)O[C@H]2CC(N)[C@@H](O[C@@H]3C(N)C[C@@H](N)C(O)[C@H]3O)OC2C1O (stereo partly shown) is 8

Sure, the documented MIC for CNC1C(O[C@H]2OC(CO)[C@@H](NCCN)[C@H](O)C2O)O[C@H]2CC(N)[C@@H](O[C@@H]3C(N)C[C@@H](N)C[C@H]3O)OC2C1O (stereo partly shown) is 8

Sure, the documented MIC for CNC1C(O[C@H]2OC(C)[C@@H](NC(CN)CN)[C@H](O)C2O)O[C@H]2CC(N)[C@@H](O[C@H]3CC(O)[C@H](N)CC3N)OC2C1O (stereo partly shown) is 4

Sure, the documented MIC for CNC1C(O[C@H]2OC(CO)[C@@H](NC(=N)N)[C@H](O)C2O)O[C@H]2CC(N)[C@@H](O[C@@H]3C(N)C[C@@H](N)C(O)[C@H]3O)OC2C1O (stereo partly shown) is 8

* * *

System: S. marcescens GN6944
Experiment: MIC, agar plate dilution method, S. marcescens GN6944
Format: cell-based, Serratia marcescens
Conditions: S. marcescens GN6944, GM-resistant
Experimental: As for the representative compounds of a new aminoglycoside antibiotic of the present invention described in Examples, the minimal inhibitory concentration (MIC, μg/mL) was measured for various assay strains of bacteria using an agar plate dilution method in accordance with the method described in the Japan Society of Chemotherapy.
Please provide measured minimal inhibitory concentration (MIC) for the entries that follow.
Unit µg/mL implied. Number only.

Noted minimal inhibitory concentration (MIC) for "CN[C@@H]1[C@@H](O[C@H]2O[C@H](CO)[C@@H](N)C[C@H]2O)O[C@H]2C[C@@H](N)[C@@H](O[C@H]3C[C@@H](O)[C@H](N)C[C@@H]3N)O[C@@H]2[C@@H]1O" , tested on S. marcescens GN6944: 4

Noted minimal inhibitory concentration (MIC) for CNC1C(OC2OC(CO)C(NC(=N)N)CC2O)OC2CC(N)C(OC3CC(O)C(N)CC3N)OC2C1O (centres unmarked) , tested on S. marcescens GN6944: 2

Noted minimal inhibitory concentration (MIC) for CN[C@@H]1[C@@H](O[C@H]2O[C@H](CO)[C@@H](N)[C@@H](O)[C@H]2O)O[C@H]2C[C@@H](N)[C@@H](O[C@H]3[C@@H](O)[C@@H](O)[C@H](N)C[C@@H]3N)O[C@@H]2[C@@H]1O [Compound P4, 5,3″-diepiapramycin] , tested on S. marcescens GN6944: 8

Noted minimal inhibitory concentration (MIC) for "CN[C@@H]1[C@@H](O[C@H]2O[C@H](C)[C@@H](N)C[C@H]2O)O[C@H]2C[C@@H](N)[C@@H](O[C@H]3[C@H](O)[C@@H](O)[C@H](N)C[C@@H]3N)O[C@@H]2[C@@H]1O" , tested on S. marcescens GN6944: 4

Noted minimal inhibitory concentration (MIC) for CNC1C(OC2OC(CO)C(NC(=N)N)C(O)C2O)OC2CC(N)C(OC3C(N)CC(N)C(O)C3N)OC2C1O (centres unmarked) , tested on S. marcescens GN6944: 4

* * *

As an illustration, consider measured MIC for compounds on E. faecium ATCC19434.
Unit µg/mL implied. Number only.

Noted MIC for CNC1C(O[C@H]2OC(CO)[C@@H](N(CCN)CCN)[C@H](O)C2O)O[C@H]2CC(N)[C@@H](O[C@@H]3C(N)C[C@@H](N)C(O)[C@H]3O)OC2C1O (stereo partly drawn) , tested on E. faecium ATCC19434: 16

Noted MIC for CNC1C(O[C@H]2OC(CO)[C@@H](N)[C@H](O)C2N)O[C@H]2CC(N)[C@@H](O[C@@H]3C(N)C[C@@H](N)C(O)[C@H]3O)OC2C1O (stereo partly drawn) [Compound G7, 2″-amino-2″-deoxy-2″,3″-diepiapramycin] , tested on E. faecium ATCC19434: 16

Noted MIC for CNC1C(O[C@H]2OC(CO)[C@@H](NC3CN(C)C3)[C@H](O)C2O)O[C@H]2CC(N)[C@@H](O[C@@H]3C(N)C[C@@H](N)C(O)[C@H]3O)OC2C1O (stereo partly drawn) , tested on E. faecium ATCC19434: 32

Noted MIC for CNCC(=O)N[C@@H]1C(CO)O[C@H](OC2O[C@H]3C[C@H](N)[C@@H](O[C@@H]4C(N)C[C@@H](N)C[C@H]4O)OC3C(O)C2NC)C(O)[C@H]1O (stereo partly drawn) [Compound V1-p, 6-deoxy-5-epi-4″-N-sarcosylapramycin] , tested on E. faecium ATCC19434: 8

Noted MIC for CNCC(=O)N[C@@H]1C(CO)O[C@H](OC2O[C@H]3CC(N)[C@@H](O[C@@H]4C(N)C[C@@H](N)C(O)[C@H]4O)OC3C(O)C2NC)C(O)[C@H]1O (stereo partly drawn) , tested on E. faecium ATCC19434: 16

Noted MIC for CNC1C(O[C@H]2OC(CO)[C@@H](NC(=O)[C@@H](N)CO)[C@H](O)C2O)O[C@H]2CC(N)[C@@H](O[C@@H]3C(N)C[C@@H](N)C(O)[C@H]3O)OC2C1O (stereo partly drawn) , tested on E. faecium ATCC19434: 64

Noted MIC for CNC1C(O[C@H]2OC(CO)[C@@H](NC(=O)CN)[C@H](O)C2O)O[C@H]2C[C@H](N)[C@@H](O[C@@H]3C(N)C[C@@H](N)C(O)[C@H]3N)OC2C1O (stereo partly drawn) , tested on E. faecium ATCC19434: 32

Noted MIC for CNC1C(O[C@H]2OC(CO)[C@@H](NC(CN)CN)[C@H](O)C2O)O[C@H]2CC(N)[C@@H](O[C@@H]3C(N)C[C@@H](N)C(O)[C@H]3O)OC2C1O (stereo partly drawn) , tested on E. faecium ATCC19434: 8

Noted MIC for CNC1C(O[C@H]2OC(C)[C@@H](N)[C@H](O)C2O)O[C@H]2CC(N)[C@@H](O[C@H]3CC(O)[C@H](N)CC3N)OC2C1O (stereo partly drawn) , tested on E. faecium ATCC19434: 8

* * *

Please provide measured minimal inhibitory concentration (MIC) for the entries that follow.
Tested on: S. aureus RN4220
Assay: MIC, agar plate dilution method, S. aureus RN4220
Type: cell-based, Staphylococcus aureus
Settings: S. aureus RN4220, Sensitive bacterium
Description: As for the representative compounds of a new aminoglycoside antibiotic of the present invention described in Examples, the minimal inhibitory concentration (MIC, μg/mL) was measured for various assay strains of bacteria using an agar plate dilution method in accordance with the method described in the Japan Society of Chemotherapy.
Unit µg/mL implied. Number only.

Sure, the documented minimal inhibitory concentration (MIC) for CNC1C(OC2OC(CO)C(N)C(O)C2O)OC2CC(N)C(OC3C(N)CC(N)C(O)C3F)OC2C1O (stereo not drawn) [Compound B7, 5-deoxy-5-epi-5-fluoroapramycin] is 4

Sure, the documented minimal inhibitory concentration (MIC) for CN[C@@H]1[C@@H](O[C@H]2O[C@H](CO)[C@@H](N)C[C@H]2O)O[C@H]2C[C@@H](N)[C@@H](O[C@H]3C[C@@H](O)[C@H](N)C[C@@H]3N)O[C@@H]2[C@@H]1O [Compound M7, 5,3″-dideoxyapramycin] is 2

Sure, the documented minimal inhibitory concentration (MIC) for CN[C@@H]1[C@@H](O[C@H]2O[C@H](CO)[C@@H](N)[C@@H](O)[C@H]2O)O[C@H]2C[C@@H](N)[C@@H](O[C@H]3[C@H](O)[C@@H](O)[C@H](N)C[C@@H]3N)O[C@@H]2[C@@H]1O [Compound H3, 3″-epiapramycin] is 4
